- EXPERIMENTAL DETAILS: rescue of yeast from PfHsp40 toxicity, primary screen, S. cerevisiae, ATP luminescence (AID 504582);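 further: yeast W303a lacking pdr1 and pdr3 grown in galactose medium; growth measured after three days at 30 °C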
- CONDITIONS USED: S. cerevisiae expressing PfHsp40, growth rescue, at 12.5 µM, stronger effect = higher value
Out of some 340,000 compounds screened, about 2,300 (0.68%) were called active. Only a selection was taken, and actives are over-represented in it overall.
READOUT TYPE: growth rescue (%)
Express your answer in %, writing the number without its unit.

Value of growth rescue reported for the compound `COc1cc(/C=C2\Oc3ccc(C#Cc4ccc(O)cc4)cc3C2=O)cc(OC)c1` is -1.52

Consider CCCC1OC23CCCCC2C(C#N)(C#N)C1(C#N)C(=N)O3 (centres undefined) . Its measured growth rescue is -1.17

Entry `CCN(CC(=O)Nc1c(F)cccc1F)C(=O)CN1c2cccc3cccc(c23)S1(=O)=O` ; growth rescue = 0.416

Consider `Cc1ccc(NC(=O)NC(=O)N(C2CCCCC2)S(=O)(=O)c2ccccc2)cc1` . Its measured growth rescue is -1.71

# growth rescue of `CCn1c(O)c2ccc(C(=O)N=NC(=O)c3cccnc3)cc2c1O` = -1.24

growth rescue reported for this compound `Cc1nn(Cc2ccccc2Cl)c(C)c1NC(=O)Cn1nc([N+](=O)[O-])c(Cl)c1C` : -0.0385

Lab book: growth rescue of `CCOC(=O)c1cnc(-n2nc(C)cc2C)nc1NNc1cc(C)nc(-c2ccccc2)n1` noted as 0.854

growth rescue reported for this compound `CCOC(=O)C1CCN(Cc2coc3ccc(Cl)cc3c2=O)CC1` : -0.75

Briefly, growth rescue measured for `COc1ccc(N2CCN(C(=O)CNC(=O)c3ccc(C(C)(C)C)cc3)CC2)cc1` : -0.643

// growth rescue lookup, compound = `O=C1/C(=C/c2coc3ccc(O)cc3c2=O)SC(=S)N1c1ccccc1` , result: -0.334

growth rescue measured on COCCCNC(=S)N1CCCC(c2nc3cc(C)c(C)cc3[nH]2)C1 (centres undefined) = -0.694

Memo: `COc1ccc(N2CCN(C(=O)CNC(=O)c3ccc(Br)o3)CC2)cc1` , reported growth rescue: 0.176

Lookup result for `CCc1cc(C(N)=O)c(NC(=O)c2ccc(OC)cc2)s1` ; measured growth rescue: 648

Sure, the documented growth rescue for `CN(C(=O)c1ccc(NC(=O)Cc2cccc(NC(=O)C3CCN(C(=O)c4ccccc4)CC3)c2)cc1)C1CC1` is -0.0305

Value of growth rescue reported for the compound O=C(NCc1ccco1)C1CCCN(S(=O)(=O)c2cnc[nH]2)C1 (centres undefined) is 0.411

The reported value for `Cc1ccc(NC(=O)COc2ccc(/C=N\NC(=O)c3cccnc3)cc2)cc1C` in terms of growth rescue is -0.012

Lab note: measured growth rescue of `CC(=O)OCc1cc(=O)n(C)c(=O)n1C` was -0.117

Item: `NC(=O)Cn1nc([N+](=O)[O-])nc1Oc1ccc(Br)cc1` | growth rescue: 1.81

Per the record, `COc1ccc(N2CCN(C(=O)CCNC(=O)c3ccc(Br)cc3)CC2)cc1` has growth rescue of 156

Lookup result for `COc1ccc(NCCc2ccccn2)cc1` ; measured growth rescue: -0.895

growth rescue recorded for this compound, `O=C(COC(=O)c1ccc(Br)o1)NC12CC3CC(CC(C3)C1)C2` , is 4.21

Looking up `CCOc1ccc(NC(=O)C2CCN(C(=O)N3CCOc4ccccc43)CC2)cc1` , I found its growth rescue recorded as 2.49

Note to self: growth rescue recorded for Cc1cccc(OCC(O)CN2CCN(S(=O)(=O)c3ccc(C)cc3C)CC2)c1 (centres undefined) was 0.709

# growth rescue of `O=c1c(/C=N/O)coc2ccc(Cl)cc12` = 412

So, `O=C(N/N=C\c1ccc(Br)cc1)c1ccc(Cn2cccn2)o1` ? Its growth rescue was 0.111

According to the records, this compound O=S(=O)(c1ccc(OCC(O)CN2CCN(c3ccccc3Cl)CC2)cc1)N1CCOCC1 (centres undefined) displays growth rescue of 2.31

// sample COc1ccccc1/C=C1\SC(=O)N(CCC(=O)N(C)C2CCS(=O)(=O)C2)C1=O (centres undefined) , its growth rescue was -0.442

Data point: CC(=O)c1ccc(OCC(O)CN2CCN(S(=O)(=O)c3cccc(Br)c3)CC2)cc1 (centres undefined) ; growth rescue = 26.4

Entry `CCc1ccccc1N(CC(=O)N1CCN(c2ccccc2F)CC1)S(C)(=O)=O` ; growth rescue = 0.191

Short answer for `Cc1ccc2c(c1)N(CC(=O)NCCCN1CCCCC1)C(=O)c1cccnc1O2` : growth rescue was -0.596

Reported growth rescue of `O=C(N/N=C/c1sc(N2CCCCC2)nc1-c1cccs1)c1cccnc1` : 140

// sample `O=C(OCC(=O)c1cccs1)c1ccc([N+](=O)[O-])o1` , its growth rescue was -1.26

Documented growth rescue of `CC(C)(C)c1ccc(Oc2ccc(N)cc2)cc1` : 346

According to the records, this compound `COc1ccc(CCNC(=O)COc2ccc3c(c2)OCO3)cc1` displays growth rescue of -0.845

According to the records, this compound CC12CCC(=O)N1C(C(=O)NCCN1C(=O)S/C(=C\c3ccccc3F)C1=O)CS2 (centres undefined) displays growth rescue of -1.34

`O=C(O)C1=C[C@H](c2cccs2)C[C@H](OCCCCO)O1` yielded growth rescue of -1.21

Looking up `O=C(O)CN1c2cccc3cccc(c23)S1(=O)=O` , I found its growth rescue recorded as 0.021

Record `COc1ccnc(Oc2ccccc2)c1-c1ncn[nH]1` , field growth rescue: -2.24

Per the records, this compound ( `COc1ccc(C(=O)Nc2sc(C)c(C)c2CN2CCOCC2)cc1` ) has growth rescue equal to 0.992

Given item `COC(=O)C1=C(NC(=O)C(C)(C)C)CCS1` , the value recorded as its growth rescue is -1.07

The measured growth rescue associated with `Cc1cccc(C)c1NC(=O)CCCSc1nnc(-c2ccco2)n1-c1ccccc1` reads 0.934

The reported value for `O=C(COC(=O)c1ccc([N+](=O)[O-])o1)NC12CC3CC(CC(C3)C1)C2` in terms of growth rescue is 364

Memo: `COc1cnc(-c2ccccn2)nc1Oc1ccc(C(C)(C)C)cc1` , reported growth rescue: 162

growth rescue reading for `CC(C)(C)NC(=O)c1ccc(Cn2cc(C(F)(F)F)ccc2=O)cc1` : -0.625
